test_system: TYK2 (Homo sapiens)
Sequence (P29597 whole entry): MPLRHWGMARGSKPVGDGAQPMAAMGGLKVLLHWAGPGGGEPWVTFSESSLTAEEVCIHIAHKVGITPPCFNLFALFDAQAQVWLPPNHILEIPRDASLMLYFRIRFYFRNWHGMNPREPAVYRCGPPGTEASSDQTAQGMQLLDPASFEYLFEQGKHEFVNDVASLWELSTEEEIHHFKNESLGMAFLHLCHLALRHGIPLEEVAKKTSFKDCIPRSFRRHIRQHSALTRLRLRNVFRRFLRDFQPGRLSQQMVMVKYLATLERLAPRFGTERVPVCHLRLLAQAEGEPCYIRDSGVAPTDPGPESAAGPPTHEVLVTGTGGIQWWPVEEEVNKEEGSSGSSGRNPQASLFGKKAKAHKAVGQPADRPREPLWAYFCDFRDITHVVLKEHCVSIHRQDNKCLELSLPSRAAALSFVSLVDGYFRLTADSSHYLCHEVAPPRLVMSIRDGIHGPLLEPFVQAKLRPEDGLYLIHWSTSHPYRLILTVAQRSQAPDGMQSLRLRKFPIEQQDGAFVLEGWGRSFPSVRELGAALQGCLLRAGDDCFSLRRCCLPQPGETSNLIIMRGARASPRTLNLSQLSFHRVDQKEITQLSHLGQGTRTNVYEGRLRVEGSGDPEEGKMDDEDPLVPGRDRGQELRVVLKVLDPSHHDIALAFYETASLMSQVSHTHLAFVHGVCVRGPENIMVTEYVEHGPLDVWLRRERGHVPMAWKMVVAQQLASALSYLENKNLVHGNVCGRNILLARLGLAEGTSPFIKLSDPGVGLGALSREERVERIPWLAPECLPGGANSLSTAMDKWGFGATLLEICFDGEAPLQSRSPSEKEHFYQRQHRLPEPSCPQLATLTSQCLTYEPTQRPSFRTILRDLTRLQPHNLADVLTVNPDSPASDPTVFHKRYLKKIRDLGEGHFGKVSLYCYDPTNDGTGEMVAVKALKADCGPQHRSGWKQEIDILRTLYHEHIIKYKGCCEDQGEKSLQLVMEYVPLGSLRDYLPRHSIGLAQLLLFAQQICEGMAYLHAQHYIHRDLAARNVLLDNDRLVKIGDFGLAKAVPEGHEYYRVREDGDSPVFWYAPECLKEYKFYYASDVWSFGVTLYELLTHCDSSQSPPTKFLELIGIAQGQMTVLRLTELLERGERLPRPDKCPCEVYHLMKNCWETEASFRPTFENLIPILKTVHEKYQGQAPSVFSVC
protocol_notes: TYK2 degradation MSD assay in human PBMC cells
Type: cell-based
Design: endogenous in cells; host or cells: human PBMC
settings: 4 to 24 hours incubation, read-out: TYK2 MSD DC50 rating in human PBMC
Please go through the items and note down their DC50.

So what does the record say about DC50 for CNc1cc(Nc2cccn(-c3ccc(C(=O)NC4CCC(CN(C)C5CCN(Cc6ccc7c(c6)n(C)c(=O)n7C6CCC(=O)NC6=O)CC5)CC4)cn3)c2=O)nn2c(C(=O)N[C@@H]3C[C@@H]3F)cnc12 (stereo partly drawn) ? > 100 nM

What do we get for CNc1cc(-c2cnn(C3CCN(C(=O)NCCCCCCCCc4ccc5c(c4)n(C)c(=O)n5C4CCC(=O)NC4=O)CC3)c2)nn2c(C(=O)N[C@@H]3C[C@@H]3F)cnc12 (stereo partly drawn) ? < 1 nM

Next up: CNC(=O)c1cnc(NC(=O)NCCCCCCc2cccc3c2n(C)c(=O)n3C2CCC(=O)NC2=O)cc1Nc1cccc(-c2ncc(F)cn2)c1OC (stereo not drawn) > 100 nM
